# tested-system: F-box/WD repeat-containing protein 7 (Homo sapiens) (UniProt Q969H0)
# Sequence (Q969H0 whole entry, looked up): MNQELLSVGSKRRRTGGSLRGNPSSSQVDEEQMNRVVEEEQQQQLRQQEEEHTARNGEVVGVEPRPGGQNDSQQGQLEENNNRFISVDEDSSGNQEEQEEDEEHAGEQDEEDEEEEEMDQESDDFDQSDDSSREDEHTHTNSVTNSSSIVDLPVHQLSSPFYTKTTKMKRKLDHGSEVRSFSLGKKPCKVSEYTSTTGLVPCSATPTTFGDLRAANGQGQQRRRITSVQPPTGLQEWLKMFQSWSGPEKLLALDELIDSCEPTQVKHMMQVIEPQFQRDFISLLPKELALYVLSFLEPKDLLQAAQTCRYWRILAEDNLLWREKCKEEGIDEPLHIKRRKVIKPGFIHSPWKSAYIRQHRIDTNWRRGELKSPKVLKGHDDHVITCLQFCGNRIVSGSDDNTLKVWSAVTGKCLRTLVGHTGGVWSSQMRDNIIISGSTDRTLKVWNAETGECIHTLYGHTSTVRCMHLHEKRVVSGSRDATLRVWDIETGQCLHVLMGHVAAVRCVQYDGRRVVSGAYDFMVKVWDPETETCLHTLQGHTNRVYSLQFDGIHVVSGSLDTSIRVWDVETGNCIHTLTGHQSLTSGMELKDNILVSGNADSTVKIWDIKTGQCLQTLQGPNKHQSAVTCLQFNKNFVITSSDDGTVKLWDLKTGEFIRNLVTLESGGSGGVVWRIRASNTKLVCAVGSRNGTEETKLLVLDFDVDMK
# method: FBW7 E3 ligase activators, primary screen, biochemical, AlphaScreen, human (AID 1259310);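 further: purified mutant Fbw7 with reduced substrate affinity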
# cond: AlphaScreen FBW7–phospho-cyclin E peptide binding, activator screen; at 26.1 µM; hits give high values
About 850 (0.13%) of roughly 650,000 compounds were called active. The list comes from a sample in which actives are over-represented; it also holds close analogues and randomly drawn compounds.
For each record, write down the corresponding normalized activity (activation).
Field: numeric (%). Do not append units.

Challenge: Return normalized activity (activation) measured with F-box/WD repeat-containing protein 7 (Homo sapiens) (UniProt Q969H0) given this molecule: COCCn1nnnc1C(c1cc2ccc(C)cc2[nH]c1=O)N1CCCC1 (stereo unspecified)
Response given: -0.04

Challenge: Now consider COc1ccc(OC)c(NS(=O)(=O)c2ccc(NC(=O)COc3ccccc3)cc2)c1 and answer again.
Response given: -0.06

Challenge: Consider next the molecule CCN(CC)C(=O)Cn1ncn2c(cc3ccsc32)c1=O in the same way.
Response given: -0.03

Challenge: Queued: COc1c(Cl)cc(Cl)cc1C(=O)Nc1ccccc1[N+](=O)[O-]
Response given: -0.17

Challenge: Note, next up: CCC(C)(C)C(=O)Nc1ccc(S(N)(=O)=O)cc1
Response given: -0.09

Challenge: # iterate: CCCCOc1ccc(/C=C/c2nc3ccccc3c(=O)n2-c2ccc(C)c(C)c2)cc1
Response given: -0.23

Challenge: Cool, now COCC(C)NC(=O)c1ccccc1I (stereo unspecified)
Response given: 0.14

Challenge: Then O=c1[nH]c(N2CCOCC2)nc2c1CN(Cc1ccccc1Cl)CC2 ?
Response given: -0.04

Challenge: N/C(=N\OC(=O)CCCOc1ccc(Cl)cc1Cl)c1nonc1N , same question.
Response given: 4.98

Challenge: What about CCc1nn(CC(=O)NCc2cccs2)c(=O)c2cc3ccsc3n12 ?
Response given: -0.13

Challenge: Please answer likewise for CCCCOC(=O)c1cccc(NC(=O)CN2C(=O)c3ccccc3C2=O)c1
Response given: 0.09

Challenge: Now this one: Cc1ncn(-c2ccc(Nc3cc(-c4cnn(C(C)C)c4-c4ccc(F)cc4)ccn3)cc2)n1
Response given: 0.79

Challenge: Do the same for COc1nc(N=C(N)N)nc2c(C)cccc12 please
Response given: -0.06

Challenge: Note, next up: Cc1cccc(C)c1NC(=O)C(=O)NCCCO
Response given: 0.01

Challenge: Moving on to COc1cc(CNc2nccn3c(-c4ccc(F)cc4)cnc23)cc(OC)c1OC
Response given: 1.85

Challenge: And then Cc1ccc2c(c1)N(CC(=O)NC1CC1)C(=O)CO2 , what is it?
Response given: -0.26

Challenge: Try this molecule too: C=CCn1c(=NC(=O)c2ccccc2[N+](=O)[O-])sc2cc(S(N)(=O)=O)ccc21
Response given: 0

Challenge: Also check Cc1noc(C)c1-c1nc(N)c2ncn(-c3ccccc3)c2n1
Response given: -0.05

Challenge: Input O=C(CCCOc1ccc(Cl)cc1Cl)N1CCCC1
Response given: 0.05

Challenge: Item: O=C(COc1cccc([N+](=O)[O-])c1)N/N=C/c1ccc(O)c([N+](=O)[O-])c1
Response given: -0.11

Challenge: Can you check O=C1C2C3c4ccccc4C(c4ccccc43)C2C(=O)N1CCCCO (stereo unspecified) next?
Response given: 0.04

Challenge: # iterate: Cc1ccc(CN2CCN(CC(=O)NCc3ccccn3)C2=O)cc1
Response given: -0.27

Challenge: Cool, now CCC1(C)OC(=O)N(C)C1=O (stereo unspecified)
Response given: 2.13

Challenge: Try Nc1ccnc2cc(-c3ccccc3)nn12 next.
Response given: -0.02

Challenge: Same lookup for Cc1ccc(C(=O)NC(C)C(c2cccs2)N2CCN(C)CC2)cc1 (stereo unspecified) , please.
Response given: -0.03

Challenge: Then COC(=O)c1c(OCc2ccncc2)cc(=O)n2c1CCN(CCCSC)CC2 ?
Response given: 0

Challenge: Try this molecule next: CCCc1nn(CC(=O)N(C)C)c(=O)c2cc3ccsc3n12
Response given: 3.43

Challenge: Also need Cc1cc(Nc2ccc(Cl)cc2)n2c(nc3ccccc32)c1C#N , thanks.
Response given: -0.02

Challenge: Please give the result for Cc1ccccc1CNC(=O)c1ccccc1I too.
Response given: 0.92

Challenge: Same for O=C(CN(c1ccccc1)S(=O)(=O)c1ccccc1[N+](=O)[O-])N/N=C/c1ccco1
Response given: 2.75

Challenge: Another molecule to look at: Cc1ccc(Oc2ccc(N(C)C(=O)Nc3ccc(Cl)cc3)cc2)nn1
Response given: 0.86

Challenge: Same thing, different molecule: COc1ccc(N2CCN(C(CNC(=O)C(C)C)c3ccco3)CC2)cc1 (stereo unspecified)
Response given: 0

Challenge: One more molecule: COc1cc(Nc2nc(-c3c(C)noc3C)nc3c2ncn3C2CCCCC2)cc(OC)c1OC
Response given: -0.17

Challenge: Queued: Cc1cc(NCCN2CCCCCC2)n2c(nc3ccccc32)c1C#N
Response given: 2.12

Challenge: Do the same for O=C(CN(c1ccccc1)S(=O)(=O)c1ccccc1[N+](=O)[O-])Nc1ccc(F)cc1 please
Response given: 0.71

Challenge: Then CC1CCCN(S(=O)(=O)c2ccc3c(c2)OCC(=O)N3)C1 (stereo unspecified) ?
Response given: 0.17

Challenge: Then C=CCNC(=O)c1cc2c(=O)n3cccc(C)c3nc2n1C ?
Response given: 0.17

Challenge: Do the same for CC(C)NCCOCCOc1cccc(Br)c1 please
Response given: 0.35

Challenge: And for CCCCOC(=O)C1=C(C)N(C)C(=O)NC1c1cc(Cl)c(O)c(OC)c1 (stereo unspecified) ?
Response given: -0.11

Challenge: Next: COCCn1nnnc1C(c1cc2cc(C)c(C)cc2[nH]c1=O)N1CCCCC1 (stereo unspecified)
Response given: -0.02

Challenge: Cc1c(Cc2ccccc2)c(N2CCCCC2)n2c(nc3ccccc32)c1C#N , same question.
Response given: 0.12

Challenge: Lookup COc1ccccc1-c1cnc2c(NCc3cccs3)nccn12
Response given: -0.21

Challenge: # iterate: Cc1ncn(-c2ccc(Nc3cc(-c4nocc4-c4ccccn4)ccn3)cc2)n1
Response given: 2.76

Challenge: Field entry: CCC(C)(C(=O)Nc1ccc2c(c1)OCCO2)N(Cc1ccco1)C(=O)c1ccccc1O (stereo unspecified)
Response given: -0.01

Challenge: Next record, please: COc1cc(C2CC(=O)NC3=C2C(=O)CC(C)(C)C3)cc([N+](=O)[O-])c1O (stereo unspecified)
Response given: -0.34

Challenge: Also c1cnc(Sc2nnc3ccccn23)nc1 , if possible.
Response given: 0.1

Values from PubChem BioAssay AID1259310
